B1: tRNA (parent)
chain: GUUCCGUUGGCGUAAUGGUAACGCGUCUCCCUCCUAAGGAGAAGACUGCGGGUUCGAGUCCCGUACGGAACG

# Variants of: B1
# assay_overview: yeast fitness relative to wild type (ratio to wild type); higher = fitter; tRNA-Arg(CCU), competitive growth, 37 C, YPD
This sample holds only a part of the variants without activity.
assay_readout: yeast fitness
No unit in the answer, only the number.

>>> value_measured("C4U U64C")
0.962
>>> value_measured("G6C G38A")
0.84
>>> value_measured("G56C G58A")
0.607
>>> value_measured("G10A A40U G52C C62A A65C A70U")
0.655
>>> value_measured("U47A U53C")
0.7
>>> value_measured("C46U G56A G67A")
0.686
>>> value_measured("A20U C31U C49U")
0.773
>>> value_measured("U3A C4U U32C U64C")
0.877

Hello, please tell me recorded yeast fitness for this one: U2A C4U G10C
0.522

Give yeast fitness for C4U G6A U13C U28C
0.616

Give me measured yeast fitness, please, for this variant: G18C G68C
0.556

For U3C G9A C62G , write its yeast fitness.
0.681

Cited source for all entries: the RNAGym collection of RNA variant scans (doi:10.1126/science.aae0568)
